System: DU145
Assay: Further cell proliferation assay, X-Celligence RTCA, DU145
Format: cell-based
Conditions: Homo sapiens, DU-145; DU145, castration resistant prostate cancer cells
readoutName: pEC50
One number for each entry, as −log10 of the molar value.

Could you tell me which pEC50 is on file for CNc1ncnc2c1ccn2[C@@H]1C[C@H](CNCCCNCCc2cccc(Oc3ccccc3)c2)[C@@H](O)[C@H]1O [Compound 287] ?
4.72

* * *

Target: KMT9 (Homo sapiens)
Sequence (Q9Y5N5 whole entry): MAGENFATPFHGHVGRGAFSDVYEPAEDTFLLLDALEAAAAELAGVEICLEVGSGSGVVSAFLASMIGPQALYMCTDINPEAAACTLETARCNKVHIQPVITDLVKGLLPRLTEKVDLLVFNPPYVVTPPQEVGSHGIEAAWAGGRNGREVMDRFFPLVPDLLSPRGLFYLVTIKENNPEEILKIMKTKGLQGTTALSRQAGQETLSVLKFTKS
Sequence (Q9UI30 1-120 isoform Q9UI30-2 partner): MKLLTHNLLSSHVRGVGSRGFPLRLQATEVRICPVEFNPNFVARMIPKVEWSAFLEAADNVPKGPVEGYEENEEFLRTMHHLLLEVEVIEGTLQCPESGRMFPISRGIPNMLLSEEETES
Test: KMT9 thermal shift assay (SyproOrange)
Type: binding
Conditions: 500 µM compound, 2 μM KMT9; read-out: Thermal shift (ΔTm)
Would you kindly list ΔTm at 500 µM for each of these compounds?

compound	result
NCc1cccc([C@H]2C[C@@H](n3cc(Br)c4c(N)nc(Cl)nc43)[C@H](O)[C@@H]2O)c1	15 to 20 °C
Nc1nc(Cl)nc2c1c(-c1nc(Cc3ccccc3)cs1)cn2[C@@H]1C[C@H](C2CCN(CCF)CC2)[C@@H](O)[C@H]1O	15 to 20 °C
Nc1nc(Cl)nc2c1ccn2[C@@H]1C[C@H](c2cnn(CCc3ccccc3)c2)[C@@H](O)[C@H]1O	≤ 10 °C
COc1cc(-c2cnsc2)cc([C@H]2C[C@@H](n3ccc4c(N)nc(Cl)nc43)[C@H](O)[C@@H]2O)c1	10 to 15 °C
Cn1ccc(-c2cn([C@@H]3C[C@H](c4cccc(CN5CCC5)c4)[C@@H](O)[C@H]3O)c3nc(Cl)nc(N)c23)n1	15 to 20 °C
Nc1nc(Cl)nc2c1ccn2[C@@H]1C[C@H](c2cccc(OC(F)(F)F)c2)[C@@H](O)[C@H]1O	≤ 10 °C

State recorded ΔTm at 500 µM for all listed compounds.
1. COc1cc(OC)cc([C@H]2C[C@@H](n3cc(-c4ccn(C)n4)c4c(N)nc(Cl)nc43)[C@H](O)[C@@H]2O)c1
2. Nc1cccc([C@H]2C[C@@H](n3ccc4c(N)ncnc43)[C@H](O)[C@@H]2O)c1
3. Nc1nc(Cl)nc2c1c(Br)cn2[C@@H]1C[C@H](c2cccc(CN3CCC3)c2)[C@@H](O)[C@H]1O
4. CNc1ncnc2c1ccn2[C@@H]1C[C@H](c2ccc(O)cc2)[C@@H](O)[C@H]1O
5. O[C@@H]1[C@H](O)[C@@H]([C@H]2CCCNC2)C[C@H]1n1cc(-c2nccs2)c2cncnc21
6. CNc1nc(Cl)nc2c1ccn2[C@@H]1C[C@H](c2ccc(O)cc2)[C@@H](O)[C@H]1O

10 to 15 °C
≤ 10 °C
15 to 20 °C
≤ 10 °C
≤ 10 °C
≤ 10 °C

State recorded ΔTm at 500 µM for all listed compounds.
1. NCc1cccc([C@H]2C[C@@H](n3ccc4c(N)nc(Cl)nc43)[C@H](O)[C@@H]2O)c1
2. Nc1nc(Cl)nc2c1c(Br)cn2[C@@H]1CC(CNCCCNCCc2ccc(F)cc2)[C@@H](O)[C@H]1O (mixture of isomers)
3. CC(=O)CN1CCC([C@H]2C[C@@H](n3cc(-c4nc(Cc5ccccc5)cs4)c4c(N)nc(Cl)nc43)[C@H](O)[C@@H]2O)CC1
4. Nc1nc(Cl)nc2c1c(-c1nc(Cc3ccccc3)cs1)cn2[C@@H]1C[C@H](C2CCN(Cc3ccncc3)CC2)[C@@H](O)[C@H]1O
5. Nc1nc(Cl)nc2c1c(-c1nccs1)cn2[C@@H]1C[C@H](C2CCN(CCc3ccncc3)CC2)[C@@H](O)[C@H]1O

["15 to 20 °C", "> 20 °C", "15 to 20 °C", "10 to 15 °C", "15 to 20 °C"]

State recorded ΔTm at 500 µM for all listed compounds.
1. COc1cc(Br)cc([C@H]2C[C@@H](n3ccc4c(N)nc(Cl)nc43)[C@H](O)[C@@H]2O)c1
2. Nc1nc(Cl)nc2c1c(-c1nc(Cc3ccccc3)cs1)cn2[C@@H]1C[C@H](C2CCN(C[C@H]3CCOC3)CC2)[C@@H](O)[C@H]1O [Compound 521R]
3. Nc1nc(Cl)nc2c1c(-c1nccs1)cn2[C@@H]1CC(CN(CCCNCCc2ccc(F)cc2)c2cn[nH]c2)[C@@H](O)[C@H]1O (single isomer, unassigned)
4. Nc1nc(Cl)nc2c1ccn2[C@@H]1C[C@H](c2cc[nH]c(=O)c2)[C@@H](O)[C@H]1O
5. Nc1nc(Cl)nc2c1c(-c1nc(Cc3ccccc3)cs1)cn2[C@@H]1C[C@H](C2CCN(Cc3ccco3)CC2)[C@@H](O)[C@H]1O
6. CN(CCCNCCc1ccc(F)cc1)C[C@H]1C[C@@H](n2cc(-c3nccs3)c3c(N)nc(Cl)nc32)[C@H](O)[C@@H]1O
7. COc1cc([C@H]2C[C@@H](n3ccc4c(N)nc(Cl)nc43)[C@H](O)[C@@H]2O)ccn1
8. Nc1nc(Cl)nc2c1c(Br)cn2[C@@H]1C[C@H](CN(CCCNCCc2ccc(F)cc2)c2cn[nH]c2)[C@@H](O)[C@H]1O

["10 to 15 °C", "15 to 20 °C", "> 20 °C", "≤ 10 °C", "15 to 20 °C", "> 20 °C", "≤ 10 °C", "15 to 20 °C"]

Could you tell me which ΔTm at 500 µM is on file for Nc1nc(Cl)nc2c1c(-c1ccn(S(=O)(=O)c3ccccc3)n1)cn2[C@@H]1C[C@H](C2CCN(CC3CC3)CC2)[C@@H](O)[C@H]1O ?
> 20 °C
